Tested on: Toxoplasma gondii RH-2F tachyzoites
PROCEDURE TEXT: microbe, parasite or virus in culture
RUN CONDITIONS: 72 h, read-out: Parasite inhibition (%) mean, preliminary screen of compound library, mean
Where a name gives a salt, the structure may show the parent alone.
Reported inhibition of growth at 5 µM values follow for various compounds
Response body: numeric value in %, unit text excluded.

I have this compound here, `CCn1nnc2c(N3CCOCC3)nc(-c3ccc(NC(=O)Nc4ccc(C(=O)N5CCN(C)CC5)cc4)cc3)nc21` , and I need its recorded inhibition of growth at 5 µM.
36.9

I have this compound here, COc1ccc(CNCc2cccc3ccccc23)cc1 [ML133 HCl] , and I need its recorded inhibition of growth at 5 µM.
0.7

I have this compound here, `CNC(=O)c1ccc(N2C(=S)N(c3cnc(C#N)c(C(F)(F)F)c3)C(=O)C23CCC3)cc1F` , and I need its recorded inhibition of growth at 5 µM.
28.7

I have this compound here, `Nc1ccc(-c2ccc3ncc4ccc(=O)n(-c5cccc(C(F)(F)F)c5)c4c3c2)cn1` , and I need its recorded inhibition of growth at 5 µM.
25.1

I have this compound here, CN(Cc1ccc(C(C)(C)C)cc1)Cc1cccc2ccccc12 [Butenafine HCl] , and I need its recorded inhibition of growth at 5 µM.
7.5

I have this compound here, `CN(C)[C@@H]1C(O)=C(C(N)=O)C(=O)[C@@]2(O)C(=O)C3=C(O)c4c(O)cccc4[C@@](C)(O)[C@H]3[C@H](O)[C@@H]12` , and I need its recorded inhibition of growth at 5 µM.
33.5

I have this compound here, N=C(N)c1ccc(OCCCCCOc2ccc(C(=N)N)cc2)cc1 [Pentamidine HCl] , and I need its recorded inhibition of growth at 5 µM.
23.6

I have this compound here, `CC(C)c1onc(-c2c(Cl)cccc2Cl)c1COc1ccc(/C=C/c2cccc(C(=O)O)c2)c(Cl)c1` , and I need its recorded inhibition of growth at 5 µM.
-7.7

I have this compound here, `Cc1cc(CN2CCN(c3c(Br)cnc4[nH]c(-c5ccc(N6CCN(C)CC6)cc5)nc34)CC2)no1` , and I need its recorded inhibition of growth at 5 µM.
86.1

I have this compound here, `C[C@H]1CCN(C(=O)CC#N)C[C@@H]1N(C)c1ncnc2[nH]ccc12` , and I need its recorded inhibition of growth at 5 µM.
11.2

I have this compound here, `CS(=O)(=O)c1ccc(-c2cnc(N)c(C(=O)Nc3ccccc3)n2)cc1` , and I need its recorded inhibition of growth at 5 µM.
-7.9

I have this compound here, C[C@@H](O)[C@H]1C(=O)N2C(C(=O)O)=C(S[C@@H]3CN[C@H](CNS(N)(=O)=O)C3)[C@H](C)[C@H]12 [Doripenem Hydrate] , and I need its recorded inhibition of growth at 5 µM.
0.8

I have this compound here, O=C(O)CCCN1CCC(O[C@@H](c2ccc(Cl)cc2)c2ccccn2)CC1.O=S(=O)(O)c1ccccc1 [Bepotastine Besilate] , and I need its recorded inhibition of growth at 5 µM.
50.1

I have this compound here, `Nc1ncnc2c1c(-c1cnc3[nH]ccc3c1)nn2C1CCCC1` , and I need its recorded inhibition of growth at 5 µM.
36.8

I have this compound here, `CC[C@@H]1C(=O)N(C)c2cnc(Nc3ccc(C(=O)N[C@H]4CC[C@H](N5CCN(CC6CC6)CC5)CC4)cc3OC)nc2N1C(C)C` , and I need its recorded inhibition of growth at 5 µM.
0.8

====

Reported inhibition of growth at 5 µM values follow for various compounds
Tested on: Toxoplasma gondii RH-2F tachyzoites
PROCEDURE TEXT: microbe, parasite or virus in culture
RUN CONDITIONS: 72 h, read-out: Parasite inhibition (%) mean, preliminary screen of compound library, mean
Response body: numeric value in %, unit text excluded.

COc1ccc2c(Oc3ccc(NC(=O)c4c(C)n(CC(C)(C)O)n(-c5ccccc5)c4=O)nc3)ccnc2c1 [AMG458]; 86.6
Cc1nc(NC(=O)N2CCC[C@H]2C(N)=O)sc1-c1ccnc(C(C)(C)C(F)(F)F)c1 [BYL719]; 47.5
CNC(=O)c1cc(Oc2ccc(NC(=O)Nc3cc(C(C)(C)C)nn3-c3ccc4ncccc4c3)c(F)c2)ccn1 [DCC-2036 (Rebastinib)]; 25.5

Moving on to the next compound.
I have this compound here, OC[C@@H](O)[C@@H](O)[C@H](O)[C@H](O)CO [D-Mannitol (Osmitrol)] , and I need its recorded inhibition of growth at 5 µM.
0.2

====

PROCEDURE TEXT: in vitro
RUN CONDITIONS: human, uninfected human foreskin fibroblasts (HFFs)
READOUT: viability at 72 h (%)
Response body: numeric value in %, unit text excluded.

I have this compound here, O=C1CCC[C@@H]2[C@@H]3CCCN4CCC[C@H](CN12)[C@@H]34 [Matrine ((+)-Matrine)] , and I need its recorded viability at 72 h.
19.6

====

PROCEDURE TEXT: in vitro
RUN CONDITIONS: human
READOUT: viability at 72 h, 5 µM (%)
Response body: numeric value in %, unit text excluded.

NCCC(O)(P(=O)(O)O)P(=O)(O)O [Pamidronate disodium, reference compound]; 80.8

Moving on to the next molecule.
I have this molecule here, Nc1nc2[nH]cc(CCc3ccc(C(=O)N[C@@H](CCC(=O)O)C(=O)O)cc3)c2c(=O)[nH]1 [Pemetrexed disodium, reference compound] , and I need its recorded viability at 72 h, 5 µM.
84.6

====

System: Toxoplasma gondii RH-2F tachyzoites
PROCEDURE TEXT: microbe, parasite or virus in culture
RUN CONDITIONS: 72 h, read-out: Parasite inhibition (%) mean, preliminary screen of compound library, mean
Where a name gives a salt, the structure may show the parent alone.
Reported inhibition of growth at 5 µM values follow for various molecules
Hey, just the number and the unit after it is fine.

Known results for molecules:
N#Cc1c(O)c2c(-c3ccc(-c4ccccc4O)cc3)csc2[nH]c1=O; -13.9%
CNC(=O)c1cccc(-c2ccc3c(N4CCOC[C@@H]4C)nc(N4CCOC[C@@H]4C)nc3n2)c1; 45.5%
CC1CCN(CC[C@H]2CCCN2S(=O)(=O)c2cccc(O)c2)CC1 [SB-269970 HCl]; -10.7%
CCCC(=O)[O-].[Na+] [Sodium butyrate]; 23.1%
O=C[C@H](O)[C@@H](O)[C@H](O)CO; -51.2%

Enter reported inhibition of growth at 5 µM observed with Toxoplasma gondii RH-2F tachyzoites for `N#CC1(c2ccc(NC(=O)c3cccnc3NCc3ccncc3)cc2)CCCC1`
77.6%

Enter reported inhibition of growth at 5 µM observed with Toxoplasma gondii RH-2F tachyzoites for `C[C@H](NC(=O)[C@@H](O)c1cc(F)cc(F)c1)C(=O)N[C@@H]1C(=O)N(C)c2ccccc2-c2ccccc21`
0.9%

====

PROCEDURE TEXT: in vitro
RUN CONDITIONS: human, Host viability (%) mean, preliminary screen of compound library; mean
READOUT: viability at 72 h (%)
Response body: numeric value in %, unit text excluded.

I have this molecule here, `COc1cc2ncnc(Nc3ccc(Cl)cc3F)c2cc1OC` , and I need its recorded viability at 72 h.
76.6

====

Tested on: Toxoplasma gondii RH-2F tachyzoites
PROCEDURE TEXT: microbe, parasite or virus in culture
RUN CONDITIONS: 72 h, read-out: Parasite inhibition (%) mean, preliminary screen of compound library, mean
Structures can show the parent of a compound that is named as a salt.
Reported inhibition of growth at 5 µM values follow for various compounds
Response body: numeric value in %, unit text excluded.

Known results for compounds:
C=C1[C@H](CO)[C@@H](O)C[C@@H]1n1cnc2c(=O)[nH]c(N)nc21 [Entecavir hydrate]; 9.8
COc1ccc(CCC(=O)Nc2nc3ccc(Cl)cc3s2)cc1OC; -12.8
Cc1nc2c([nH]1)-c1ccccc1N(C(=O)c1ccc(NC(=O)c3ccccc3-c3ccccc3)cc1)CC2 [Conivaptan HCl (Vaprisol)]; 6.6
CNC(=O)Nc1ccc(-c2nc(N3CC4CCC(C3)O4)c3cnn(C4CCC5(CC4)OCCO5)c3n2)cc1; 44.4
COC(=O)C1=CCCN(C)C1; -9.5
O=c1[nH]c2ccc(Cl)cc2c(N[C@@H]2CN3CCC2CC3)c1-c1nc2ccccc2[nH]1; 0
C=CC(=O)Nc1ccc2ncnc(Nc3cccc(Br)c3)c2c1; -0.1
COc1cc2nccc(Oc3ccc(NC(=O)C4(C(=O)Nc5ccc(F)cc5)CC4)cc3)c2cc1OC [Cabozantinib malate]; 80.4
Cc1cc(OCCCS(C)(=O)=O)cc(C)c1-c1cccc(COc2ccc3c(c2)OC[C@H]3CC(=O)O)c1; -10.4
O=c1cc(N2CCOCC2)oc2c(-c3cccc4c3sc3ccccc34)cccc12; 21.5

I have this compound here, `C=CC(=O)N1CCC[C@@H](n2nc(-c3ccc(Oc4ccccc4)cc3)c3c(N)ncnc32)C1` , and I need its recorded inhibition of growth at 5 µM.
-0.8

I have this compound here, `COc1cc(Nc2ncc(F)c(Nc3ccc4c(n3)N(COP(=O)(O)O)C(=O)C(C)(C)O4)n2)cc(OC)c1OC` , and I need its recorded inhibition of growth at 5 µM.
27.4
